All values here come from paper PMC8868508.

Here's what we have: MIC numbers for K. pneumoniae ATCC 43816.
Where a SMILES comes first, the peptide text is derived from it.

>  <molecule>
CC[C@H](C)[C@H](NC(=O)[C@H](C)NC(=O)[C@H](CCC(=O)O)NC(=O)[C@H](CCC(N)=O)NC(=O)[C@H](CCCCN)NC(=O)CNC(=O)[C@H](C)NC(=O)[C@H](CC(C)C)NC(=O)[C@H](C)NC(=O)[C@H](CC(C)C)NC(=O)[C@@H](N)Cc1ccccc1)C(=O)N[C@@H](C)C(=O)N[C@@H](CCCCN)C(=O)N[C@@H](CC(C)C)C(=O)N[C@@H](CCCCN)C(N)=O [QUB-1599] (H-FLALAGKQEAIAKLK-NH2)

>  <result>
> 128 µM

$$$$
>  <molecule>
CC[C@H](C)[C@H](NC(=O)[C@H](C)NC(=O)[C@H](CCC(=O)O)NC(=O)[C@H](CCC(N)=O)NC(=O)[C@@H](NC(=O)[C@H](CC(C)C)NC(=O)[C@H](CCCCN)NC(=O)CNC(=O)[C@H](C)NC(=O)[C@H](CC(C)C)NC(=O)[C@@H](N)Cc1ccccc1)[C@@H](C)CC)C(=O)N[C@@H](C)C(=O)N[C@@H](CCCCN)C(=O)N[C@@H](CC(C)C)C(=O)N[C@@H](CCCCN)C(N)=O [QUB-1643] (H-FLAGKLIQEAIAKLK-NH2)

>  <result>
> 128 µM

$$$$
>  <molecule>
CC[C@H](C)[C@H](NC(=O)[C@H](C)NC(=O)[C@H](CCCCN)NC(=O)[C@@H]1CCCN1C(=O)[C@@H](NC(=O)[C@H](CC(C)C)NC(=O)[C@H](C)NC(=O)[C@H](CC(C)C)NC(=O)[C@H](C)NC(=O)[C@H](CC(C)C)NC(=O)[C@@H](N)Cc1ccccc1)[C@@H](C)CC)C(=O)N[C@@H](C)C(=O)N[C@@H](CCCCN)C(=O)N[C@@H](CC(C)C)C(=O)N[C@@H](CCCCN)C(N)=O [QUB-1609] (H-FLALALIPKAIAKLK-NH2)

>  <result>
128 µM

$$$$

For CC[C@H](C)[C@H](NC(=O)[C@H](C)NC(=O)CNC(=O)CNC(=O)[C@@H](NC(=O)[C@H](CC(C)C)NC(=O)[C@H](C)NC(=O)[C@H](CC(C)C)NC(=O)[C@H](C)NC(=O)[C@H](CC(C)C)NC(=O)[C@@H](N)Cc1ccccc1)[C@@H](C)CC)C(=O)N[C@@H](C)C(=O)N[C@@H](CCCCN)C(=O)N[C@@H](CC(C)C)C(=O)N[C@@H](CCCCN)C(N)=O [QUB-1498] (H-FLALALIGGAIAKLK-NH2) the molecule record lists MIC as > 128 µM

For CC[C@H](C)[C@H](NC(=O)[C@H](C)NC(=O)[C@H](CCC(=O)O)NC(=O)[C@H](CCCCN)NC(=O)CNC(=O)[C@H](CC(C)C)NC(=O)[C@H](C)NC(=O)[C@H](CC(C)C)NC(=O)[C@H](C)NC(=O)[C@H](CC(C)C)NC(=O)[C@@H](N)Cc1ccccc1)C(=O)N[C@@H](C)C(=O)N[C@@H](CCCCN)C(=O)N[C@@H](CC(C)C)C(=O)N[C@@H](CCCCN)C(N)=O [QUB-1585] (H-FLALALGKEAIAKLK-NH2) the molecule record lists MIC as > 128 µM

For CC[C@H](C)[C@H](NC(=O)[C@H](C)NC(=O)[C@H](CCC(=O)O)NC(=O)[C@H](CCC(N)=O)NC(=O)[C@@H](NC(=O)[C@H](CC(C)C)NC(=O)[C@H](C)NC(=O)[C@H](CC(C)C)NC(=O)[C@H](C)NC(=O)[C@H](CC(C)C)NC(=O)[C@@H](N)Cc1ccccc1)[C@@H](C)CC)C(=O)N[C@@H](C)C(=O)N[C@@H](CCCCN)C(=O)N[C@@H](CC(C)C)C(=O)N[C@@H](CCCCN)C(N)=O [QUB-1641] (H-FLALALIQEAIAKLK-NH2) the molecule record lists MIC as > 128 µM
